total protein half-life in vivo by entry:
# Test: total protein half-life in vivo (active degradation + dilution); higher = more stable protein
# Stated conditions: wild type E. coli NCM3722; growth: C-lim chemostat; doubling time 6 h
Write the number in h without appending the unit.

MSERLSITPLGPYIGAQISGADLTRPLSDNQFEQLYHAVLRHQVVFLRDQAITPQQQRALAQRFGELHIHPVYPHAEGVDEIIVLDTHNDNPPDNDNWHTDVTFIETPPAGAILAAKELPSTGGDTLWTSGIAAYEALSVPFRQLLSGLRAEHDFRKSFPEYKYRKTEEEHQRWREAVAKNPPLLHPVVRTHPVSGKQALFVNEGFTTRIVDVSEKESEALLSFLFAHITKPEFQVRWRWQPNDIAIWDNRVTQHYANADYLPQRRIMHRATILGDKPFYRAG : 4.02

Indicate its recorded total protein half-life in vivo; the sequence in question is MKIISKMLVGALALAVTNVYAAELMTKAEFEKVESQYEKIGDISTSNEMSTADAKEDLIKKADEKGADVLVLTSGQTDNKIHGTANIYKKK
4.78

###

# Test: total protein half-life in vivo (active degradation + dilution); higher = more stable protein
# Stated conditions: wild type E. coli NCM3722; growth: P-lim chemostat; doubling time 6 h
total protein half-life in vivo by entry:
Write the number in h without appending the unit.

As a guide, the following entries are already answered.
MDLRDLKTFLHLAESRHFGRSARAMHVSPSTLSRQIQRLEEDLGQPLFVRDNRTVTLTEAGEELRVFAQQTLLQYQQLRHTIDQQGPSLSGELHIFCSVTAAYSHLPPILDRFRAEHPSVEIKLTTGDAADAMEKVVTGEADLAIAGKPETLPGAVAFSMLENLAVVLIAPALPCPVRNQVSVEKPDWSTVPFIMADQGPVRRRIELWFRRNKISNPMIYATVGGHEAMVSMVALGCGVALLPEVVLENSPEPVRNRVMILERSDEKTPFELGVCAQKKRLHEPLIEAFWKILPNHK : 5.48
MRTTIAVVLGAISLTSAFVFADKPDVARSANDEVSTLFFGHDDRVPVNDTTQSPWDAVGQLETASGNLCTATLIAPNLALTAGHCLLTPPKGKADKAVALRFVSNKGLWRYEIHDIEGRVDPTLGKRLKADGDGWIVPPAAAPWDFGLIVLRNPPSGITPLPLFEGDKAALTAALKAAGRKVTQAGYPEDHLDTLYSHQNCEVTGWAQTSVMSHQCDTLPGDSGSPLMLHTDDGWQLIGVQSSAPAAKDRWRADNRAISVTGFRDKLDQLSQK : 6.23
MSRRAGTPTAKKVTQLVNVEEHVEGFRQVREAHRRELIDDYVELISDLIREVGEARQVDMAARLGVSQPTVAKMLKRLATMGLIEMIPWRGVFLTAEGEKLAQESRERHQIVENFLLVLGVSPEIARRDAEGMEHHVSEETLDAFRLFTQKHGAK [P0A9F1] : 3.96
MRTVKVFEEAWPLHTPFVIARGSRSEARVVVVELEEEGIKGTGECTPYPRYGESDASVMAQIMSVVPQLEKGLTREELQKILPAGAARNALDCALWDLAARRQQQSLADLIGITLPETVITAQTVVIGTPDQMANSASTLWQAGAKLLKVKLDNHLISERMVAIRTAVPDATLIVDANESWRAEGLAARCQLLADLGVAMLEQPLPAQDDAALENFIHPLPICADESCHTRSNLKALKGRYEMVNIKLDKTGGLTEALALATEARAQGFSLMLGCMLCTSRAISAALPLVPQVSFADLDGPTWLAVDVEPALQFTTGELHL : 5.54
MTRLASRFGAANLIRRDRPLTREELFRVVPSVFSEDKHESRSERYTYIPTISLLDSLQREGFQPFFACQTRVRDPGRREHTKHMLRLRREGQITGKQVPEIILLNSHDGTSSYQMLPGLFRAVCQNGLVCGESFGEVRVPHKGDVVSQVIEGAYEVLGIFDRVEEKRDAMQSLLLPPPAQQALAKAALTYRFGEDHQPVTESQILSPRRWQDESNDLWTTYQRIQENLIKGGLSGRNAKGGRSHTRAVRGIDGDVKLNRALWVMAEALLTQLQ : 3.42

Proceeding to the next sequence to report its total protein half-life in vivo.
Indicate its recorded total protein half-life in vivo; the sequence in question is MQEIMQFVGRHPILSIAWIALLVAVLVTTFKSLTSKVKVITRGEATRLINKEDAVVVDLRQRDDFRKGHIAGSINLLPSEIKANNVGELEKHKDKPVIVVDGSGMQCQEPANALTKAGFAQVFVLKEGVAGWAGENLPLVRGK [P0AG27]
6.47

Each recorded value in this set is attributed to the supplement of paper PMC11246515.
